# System: Alopecurus myosuroides (ALOMY)
# assay procedure: Herbicidal glasshouse test, pre-emergence, ALOMY
# Format: in vivo
# measurement setup: applied at 1000 g/h, evaluated after 13 days
Measured PRE Application ALOMY, percentage damage (five point scale) values are reported for all entries that follow.

Some molecules with known PRE Application ALOMY, percentage damage (five point scale) results, for comparison:
>  <molecule>
C#CCn1c(=O)c(C(=O)Nc2nnnn2C)nn(C)c1=O [Compound 1.089]

>  <result>
5 (5=80-100%)

$$$$
>  <molecule>
CCCn1nnnc1NC(=O)c1cn(C)c(=O)n(-c2cccc(F)c2)c1=O [Compound 4.005]

>  <result>
1 (1=0-19%)

$$$$
>  <molecule>
CC(C)CCn1c(=O)c(C(=O)Nc2nnnn2C)nn(C)c1=O [Compound 1.087]

>  <result>
5 (5=80-100%)

$$$$
>  <molecule>
Cn1nnnc1NC(=O)c1nn(C)c(=O)n(Cc2cccc(F)c2C(F)(F)F)c1=O [Compound 1.076]

>  <result>
5 (5=80-100%)

$$$$
>  <molecule>
Cn1nnnc1NC(=O)c1nn(C)c(=O)n(Cc2cccc(C#N)c2)c1=O [Compound 1.054]

>  <result>
5 (5=80-100%)

$$$$

Briefly, PRE Application ALOMY, percentage damage (five point scale) measured for Cn1nnnc1NC(=O)c1nn(C)c(=O)n(-c2ccc([N+](=O)[O-])cc2)c1=O [Compound 1.031] : 3 (3=40-59%)

Query CCCCn1c(=O)c(C(=O)Nc2ncnn2C)nn(C)c1=O [Compound 5.003] yields PRE Application ALOMY, percentage damage (five point scale) of 1 (1=0-19%)

molecule Cn1nnnc1NC(=O)c1nn(C)c(=O)n(Cc2cccc(F)c2F)c1=O [Compound 1.067] , PRE Application ALOMY, percentage damage (five point scale) observed: 5 (5=80-100%)

According to the records, this molecule CC(Cl)c1ccc(-n2c(=O)c(C(=O)Nc3nnnn3C)nn(C)c2=O)cc1 (stereo not drawn) [Compound 1.010] displays PRE Application ALOMY, percentage damage (five point scale) of 5 (5=80-100%)

----------
# Test system: Solanum nigrum (SOLNI)
# assay procedure: Herbicidal glasshouse test, pre-emergence, SOLNI
# Type: in vivo
# measurement setup: applied at 1000 g/h, evaluated after 13 days
readout type: PRE Application SOLNI, percentage damage (five point scale)

These recorded examples may help you get a feel for the data.
>  <structure notation>
C#CCn1c(=O)c(C(=O)Nc2nnnn2C)nn(C)c1=O

>  <result>
5 (5=80-100%)

$$$$
>  <structure notation>
Cn1nnnc1NC(=O)c1nn(C)c(=O)n(-c2ccc(OC(F)(F)F)c(F)c2)c1=O

>  <result>
5 (5=80-100%)

$$$$
>  <structure notation>
Cn1nnnc1NC(=O)c1nn(C)c(=O)n(Cc2ccccc2C(F)(F)F)c1=O

>  <result>
5 (5=80-100%)

$$$$
>  <structure notation>
Cn1nnnc1NC(=O)c1nn(C)c(=O)n(-c2cccc(F)c2F)c1=O

>  <result>
5 (5=80-100%)

$$$$
>  <structure notation>
CCn1nnnc1NC(=O)c1cn(C)c(=O)n(-c2cccc(F)c2)c1=O

>  <result>
4 (4=60-79%)

$$$$
>  <structure notation>
Cn1nnnc1NC(=O)c1nn(C)c(=O)n(Cc2ccc(F)cc2F)c1=O

>  <result>
5 (5=80-100%)

$$$$
>  <structure notation>
Cn1nnnc1NC(=O)c1nn(C)c(=O)n(Cc2ccccc2F)c1=O

>  <result>
5 (5=80-100%)

$$$$
>  <structure notation>
Cn1ncnc1OC(=O)c1cn(C)c(=O)n(-c2cccc(F)c2)c1=O

>  <result>
1 (1=0-19%)

$$$$
>  <structure notation>
Cn1nnnc1NC(=O)c1nn(C)c(=O)n(-c2ccc(C(C)(C)C)cc2)c1=O

>  <result>
5 (5=80-100%)

$$$$
>  <structure notation>
CCCCn1c(=O)c(C(=O)Nc2nnnn2C)nn(C)c1=O

>  <result>
5 (5=80-100%)

$$$$

Known value: Solanum nigrum (SOLNI) PRE Application SOLNI, percentage damage (five point scale) of the compound Cn1nnnc1NC(=O)c1nn(C)c(=O)n(-c2ccc(Br)cc2)c1=O equals 5 (5=80-100%)

PRE Application SOLNI, percentage damage (five point scale) for Solanum nigrum (SOLNI) with input Cn1nnnc1NC(=O)c1nn(C)c(=O)n(Cc2ccc([N+](=O)[O-])cc2)c1=O equals 5 (5=80-100%)

The observed PRE Application SOLNI, percentage damage (five point scale) for Cc1ccc(-n2c(=O)c(C(=O)Nc3nnnn3C)nn(C)c2=O)cc1C when tested with Solanum nigrum (SOLNI) stands at 5 (5=80-100%)

Solanum nigrum (SOLNI) PRE Application SOLNI, percentage damage (five point scale) of Cn1nnnc1NC(=O)c1nn(C)c(=O)n(Cc2ccccc2[N+](=O)[O-])c1=O is 5 (5=80-100%)

Param item: Cn1nnnc1NC(=O)c1nn(C)c(=O)n(Cc2ccccc2Br)c1=O ; param system: Solanum nigrum (SOLNI); output PRE Application SOLNI, percentage damage (five point scale): 5 (5=80-100%)

Entry Cn1cnnc1NC(=O)c1nn(C)c(=O)n(-c2ccccc2)c1=O ; assay system Solanum nigrum (SOLNI); PRE Application SOLNI, percentage damage (five point scale) recorded at 5 (5=80-100%)

Form field PRE Application SOLNI, percentage damage (five point scale) for item Cn1ncnc1NC(=O)c1cn(C)c(=O)n(-c2ccccc2)c1=O on Solanum nigrum (SOLNI): 4 (4=60-79%)

# CCCCn1c(=O)c(C(=O)Nc2nnnn2C)cn(C)c1=O with Solanum nigrum (SOLNI): PRE Application SOLNI, percentage damage (five point scale) is 2 (2=20-39%)

----------
Each item that follows carries a reported PRE Application ALOMY, percentage damage (five point scale).
# Test system: Alopecurus myosuroides (ALOMY)
# assay procedure: Herbicidal glasshouse test, pre-emergence, ALOMY
# Assay type: in vivo
# measurement setup: applied at 1000 g/h, evaluated after 13 days

The cases that follow already have their PRE Application ALOMY, percentage damage (five point scale) on record.
>  <compound>
Cn1cnnc1NC(=O)c1nn(C)c(=O)n(-c2cccc(F)c2F)c1=O [Compound 6.002]

>  <system under test>
Alopecurus myosuroides (ALOMY)

>  <result>
2 (2=20-39%)

$$$$
>  <compound>
CC(C)c1ccc(-n2c(=O)c(C(=O)Nc3nnnn3C)nn(C)c2=O)cc1 [Compound 1.046]

>  <system under test>
Alopecurus myosuroides (ALOMY)

>  <result>
5 (5=80-100%)

$$$$
>  <compound>
Cc1ccc(Cn2c(=O)c(C(=O)Nc3nnnn3C)nn(C)c2=O)cc1 [Compound 1.051]

>  <system under test>
Alopecurus myosuroides (ALOMY)

>  <result>
5 (5=80-100%)

$$$$
>  <compound>
Cn1nnnc1NC(=O)c1nn(C)c(=O)n(Cc2cccc(C(F)F)c2)c1=O [Compound 1.079]

>  <system under test>
Alopecurus myosuroides (ALOMY)

>  <result>
5 (5=80-100%)

$$$$
>  <compound>
Cn1nnnc1NC(=O)c1nn(C)c(=O)n(Cc2ccccc2C(F)(F)F)c1=O [Compound 1.062]

>  <system under test>
Alopecurus myosuroides (ALOMY)

>  <result>
5 (5=80-100%)

$$$$
>  <compound>
Cn1nnnc1NC(=O)c1nn(C)c(=O)n(-c2cccc(Br)c2)c1=O [Compound 1.033]

>  <system under test>
Alopecurus myosuroides (ALOMY)

>  <result>
5 (5=80-100%)

$$$$

Lab note: measured PRE Application ALOMY, percentage damage (five point scale) of Cn1nnnc1NC(=O)c1nn(C)c(=O)n(-c2cc(F)c(F)c(F)c2)c1=O [Compound 1.044] was 5 (5=80-100%)

PRE Application ALOMY, percentage damage (five point scale) for Cn1nnnc1NC(=O)c1nn(C)c(=O)n(Cc2ccccc2[N+](=O)[O-])c1=O [Compound 1.060] is 5 (5=80-100%)

Entry Cn1ncnc1NC(=O)c1nn(C)c(=O)n(-c2ccccc2)c1=O [Compound 5.001] , PRE Application ALOMY, percentage damage (five point scale) reported as 1 (1=0-19%)

Memo: Cn1nnnc1NC(=O)c1nn(C)c(=O)n(-c2ccccc2F)c1=O [Compound 1.020] , reported PRE Application ALOMY, percentage damage (five point scale): 5 (5=80-100%)

Entry under test: CSc1ccc(-n2c(=O)c(C(=O)Nc3nnnn3C)nn(C)c2=O)cc1 [Compound 1.009] . Its PRE Application ALOMY, percentage damage (five point scale) was 2 (2=20-39%)

Value of measured PRE Application ALOMY, percentage damage (five point scale) for the entry COCCn1c(=O)c(C(=O)Nc2nnnn2C)nn(C)c1=O [Compound 1.088] : 5 (5=80-100%)

The compound Cn1nnnc1NC(=O)c1nn(C)c(=O)n(-c2ccc(C(C)(C)C)cc2)c1=O [Compound 1.040] showed PRE Application ALOMY, percentage damage (five point scale) equal to 5 (5=80-100%)

Field PRE Application ALOMY, percentage damage (five point scale) (entry CC(C)CCn1nc(C(=O)Nc2nnnn2C)c(=O)n(-c2cccc(F)c2)c1=O [Compound 1.013] ) reads 1 (1=0-19%)
